- Test system: AMPK in Huh-7 cells
- ASSAY INFO: Activation activity on AMPK in Huh-7 cells (Western Blot)
- Format: cell-based
- EXPERIMENTAL CONDITIONS: 10 μM, 12 h, Western Blot gray scale, relative to DMSO = 1
Is pAMPK/AMPK ratio at least 2? Then MET. If not, NOT MET.

MOLECULE: C[C@@H]1OC(O[C@H]2[C@H](O[C@H]3CC[C@]4(C)[C@H]5CC=C6[C@@H]7CC(C)(C)CC[C@]7(C(=O)O)CC[C@@]6(C)[C@]5(C)CC[C@H]4C3(C)C)OC[C@H](O)[C@@H]2O)[C@H](O)[C@H](O)[C@H]1O (stereo partly drawn)
QUALITATIVE LABEL: MET
//
MOLECULE: CC1(C)CC[C@]2(C(=O)O[C@@H]3O[C@H](CO)[C@@H](O)[C@H](O)[C@H]3O)CC[C@]3(C)C(=CC[C@@H]4[C@@]5(C)CC[C@H](O[C@@H]6O[C@H](C(=O)O)[C@@H](O)[C@H](O)[C@H]6O[C@@H]6O[C@H](CO)[C@@H](O)[C@H](O)[C@H]6O)C(C)(C)[C@@H]5CC[C@]43C)[C@@H]2C1 [(I), ginsenoside Ro]
QUALITATIVE LABEL: MET
//
MOLECULE: C[C@H]1O[C@@H](O[C@H]2CC[C@@]3(C)[C@@H](CC[C@]4(C)[C@@H]3C=C[C@]35OC[C@@]6(CCC(C)(C)C[C@H]63)[C@@H](O)C[C@]54C)[C@]2(C)CO)[C@H](O)[C@@H](O[C@@H]2O[C@H](CO)[C@@H](O)[C@H](O)[C@H]2O)[C@H]1O
QUALITATIVE LABEL: NOT MET
//
MOLECULE: CC1(C)CC[C@]2(C(=O)O)CC[C@]3(C)C(=CC[C@@H]4[C@@]5(C)CC[C@H](O[C@@H]6O[C@H](C(=O)O)[C@@H](O)[C@H](O[C@@H]7OC[C@@H](O)[C@H](O)[C@H]7O)[C@H]6O)C(C)(C)[C@@H]5CC[C@]43C)[C@@H]2C1 [(IV), kochioside Ic]
QUALITATIVE LABEL: NOT MET
//
MOLECULE: CC1(C)CC[C@]2(C(=O)O)CC[C@]3(C)C(=CCC4[C@@]5(C)CC[C@H](O[C@@H]6OC[C@H](O)[C@H](O)[C@H]6O)C(C)(C)[C@@H]5CC[C@]43C)[C@@H]2C1 (stereo partly drawn)
QUALITATIVE LABEL: MET

* * *

Catalogue of inhibition at 10 µM values
- Test system: human ADPKD cyst lining epithelial cell lines WT9-12
- ASSAY INFO: Proliferation of polycystic kidney epithelial cells (CCK-8 method)
- Type: cell-based
- EXPERIMENTAL CONDITIONS: Homo sapiens, Epithelial cell; polycystic kidney epithelial cells; 10 μM, 48 h; CCK-8; n = 6; read-out: Inhibition rate (%)

COMPOUND: C[C@@H]1CC[C@]2(C(=O)O[C@@H]3O[C@H](CO)[C@@H](O)[C@H](O)[C@H]3O)CC[C@]3(C)C(=CC[C@@H]4[C@@]5(C)CC[C@H](O[C@@H]6OC[C@H](O)[C@H](O)[C@H]6O)C(C)(C)[C@@H]5CC[C@]43C)[C@@H]2[C@]1(C)O [(XII), ziyuglycoside I]
inhibition at 10 µM: 69.2%

COMPOUND: C[C@@H]1CC[C@]2(C(=O)O)CC[C@]3(C)C(=CC[C@@H]4[C@@]5(C)CC[C@H](O[C@@H]6OC[C@H](O)[C@H](O)[C@H]6O)C(C)(C)[C@@H]5CC[C@]43C)[C@@H]2[C@]1(C)O [(XIII), ziyuglycoside II]
inhibition at 10 µM: 72.1%

COMPOUND: CC1(C)CC[C@]2(C(=O)O[C@@H]3O[C@H](CO)[C@@H](O)[C@H](O)[C@H]3O)CC[C@]3(C)C(=CC[C@@H]4[C@@]5(C)CC[C@H](O[C@@H]6O[C@H](C(=O)O)[C@@H](O)[C@H](O)[C@H]6O[C@@H]6O[C@H](CO)[C@@H](O)[C@H](O)[C@H]6O)C(C)(C)[C@@H]5CC[C@]43C)[C@@H]2C1 [(I), ginsenoside Ro]
inhibition at 10 µM: 74.4%

COMPOUND: C[C@@H]1O[C@@H](O[C@H]2[C@H](O[C@H]3CC[C@@]4(C)[C@@H](CC[C@]5(C)[C@@H]4CC=C4[C@@H]6CC(C)(C)CC[C@]6(C(=O)O)CC[C@]45C)[C@]3(C)CO)OC[C@H](O)[C@@H]2O)[C@H](O)[C@H](O)[C@H]1O
inhibition at 10 µM: 80.5%

* * *

Reported Serum TG by item:
- Test system: high fat diet induced NASH model rats
- ASSAY INFO: High fat diet (HFD) induced NASH rat model
- Assay type: in vivo
- EXPERIMENTAL CONDITIONS: HFD induced NASH model rats; 5 mg/Kg; n = 8
Marks after values point to notes of the source that are not given here.

MOLECULE: C[C@H]1O[C@@H](O[C@H]2CC[C@@]3(C)[C@@H](CC[C@]4(C)[C@@H]3C=C[C@]35OC[C@@]6(CCC(C)(C)C[C@H]63)[C@H](O)C[C@]54C)[C@]2(C)CO)[C@H](O)[C@@H](O[C@@H]2O[C@H](CO)[C@@H](O)[C@H](O)[C@H]2O)[C@H]1O
TARGET UNDER TEST: high fat diet induced NASH model rats
Serum TG: 19.66 ± 5.12* mg/dL

MOLECULE: C[C@@H]1CC[C@]2(C(=O)O)CC[C@]3(C)C(=CC[C@@H]4[C@@]5(C)CC[C@H](O[C@@H]6OC[C@H](O)[C@H](O)[C@H]6O)C(C)(C)[C@@H]5CC[C@]43C)[C@@H]2[C@]1(C)O [(XIII), ziyuglycoside II]
TARGET UNDER TEST: high fat diet induced NASH model rats
Serum TG: 19.41 ± 4.37* mg/dL

MOLECULE: C[C@H]1O[C@@H](O[C@H]2CC[C@@]3(C)[C@@H](CC[C@]4(C)[C@@H]3C=C[C@]35OC[C@@]6(CCC(C)(C)C[C@H]63)[C@@H](O)C[C@]54C)[C@]2(C)CO)[C@H](O)[C@@H](O[C@@H]2O[C@H](CO)[C@@H](O)[C@H](O)[C@H]2O)[C@H]1O
TARGET UNDER TEST: high fat diet induced NASH model rats
Serum TG: 20.43 ± 4.04* mg/dL

MOLECULE: C[C@@H]1CC[C@]2(C(=O)O[C@@H]3O[C@H](CO)[C@@H](O)[C@H](O)[C@H]3O)CC[C@]3(C)C(=CC[C@@H]4[C@@]5(C)CC[C@H](O[C@@H]6OC[C@H](O)[C@H](O)[C@H]6O)C(C)(C)[C@@H]5CC[C@]43C)[C@@H]2[C@]1(C)O [(XII), ziyuglycoside I]
TARGET UNDER TEST: high fat diet induced NASH model rats
Serum TG: 18.32 ± 2.51** mg/dL

* * *

- Tested on: high fat diet induced NASH model rats
- ASSAY INFO: High fat diet (HFD) induced NASH rat model
- Assay type: in vivo
- EXPERIMENTAL CONDITIONS: serum of HFD induced NASH model rats; 5 mg/Kg; n = 8
Marks after values point to notes of the source that are not given here.

COMPOUND: C[C@H]1O[C@@H](O[C@H]2CC[C@@]3(C)[C@@H](CC[C@]4(C)[C@@H]3C=C[C@]35OC[C@@]6(CCC(C)(C)C[C@H]63)[C@@H](O)C[C@]54C)[C@]2(C)CO)[C@H](O)[C@@H](O[C@@H]2O[C@H](CO)[C@@H](O)[C@H](O)[C@H]2O)[C@H]1O
TARGET UNDER TEST: high fat diet induced NASH model rats
ALT: 71.36 ± 9.26* U/L
--
COMPOUND: C[C@H]1O[C@@H](O[C@H]2CC[C@@]3(C)[C@@H](CC[C@]4(C)[C@@H]3C=C[C@]35OC[C@@]6(CCC(C)(C)C[C@H]63)[C@H](O)C[C@]54C)[C@]2(C)CO)[C@H](O)[C@@H](O[C@@H]2O[C@H](CO)[C@@H](O)[C@H](O)[C@H]2O)[C@H]1O
TARGET UNDER TEST: high fat diet induced NASH model rats
ALT: 67.74 ± 8.29** U/L
--
COMPOUND: C[C@@H]1CC[C@]2(C(=O)O[C@@H]3O[C@H](CO)[C@@H](O)[C@H](O)[C@H]3O)CC[C@]3(C)C(=CC[C@@H]4[C@@]5(C)CC[C@H](O[C@@H]6OC[C@H](O)[C@H](O)[C@H]6O)C(C)(C)[C@@H]5CC[C@]43C)[C@@H]2[C@]1(C)O [(XII), ziyuglycoside I]
TARGET UNDER TEST: high fat diet induced NASH model rats
ALT: 74.03 ± 12.38* U/L
--
COMPOUND: C[C@@H]1CC[C@]2(C(=O)O)CC[C@]3(C)C(=CC[C@@H]4[C@@]5(C)CC[C@H](O[C@@H]6OC[C@H](O)[C@H](O)[C@H]6O)C(C)(C)[C@@H]5CC[C@]43C)[C@@H]2[C@]1(C)O [(XIII), ziyuglycoside II]
TARGET UNDER TEST: high fat diet induced NASH model rats
ALT: 69.28 ± 12.33** U/L

Measured values drawn from patent US20220331348A1 for this set.
